- Measured on: human SGLT2 (Homo sapiens, UniProt P31639)
- Construct: pcDNA vector)
- Sequence (P31639 whole entry): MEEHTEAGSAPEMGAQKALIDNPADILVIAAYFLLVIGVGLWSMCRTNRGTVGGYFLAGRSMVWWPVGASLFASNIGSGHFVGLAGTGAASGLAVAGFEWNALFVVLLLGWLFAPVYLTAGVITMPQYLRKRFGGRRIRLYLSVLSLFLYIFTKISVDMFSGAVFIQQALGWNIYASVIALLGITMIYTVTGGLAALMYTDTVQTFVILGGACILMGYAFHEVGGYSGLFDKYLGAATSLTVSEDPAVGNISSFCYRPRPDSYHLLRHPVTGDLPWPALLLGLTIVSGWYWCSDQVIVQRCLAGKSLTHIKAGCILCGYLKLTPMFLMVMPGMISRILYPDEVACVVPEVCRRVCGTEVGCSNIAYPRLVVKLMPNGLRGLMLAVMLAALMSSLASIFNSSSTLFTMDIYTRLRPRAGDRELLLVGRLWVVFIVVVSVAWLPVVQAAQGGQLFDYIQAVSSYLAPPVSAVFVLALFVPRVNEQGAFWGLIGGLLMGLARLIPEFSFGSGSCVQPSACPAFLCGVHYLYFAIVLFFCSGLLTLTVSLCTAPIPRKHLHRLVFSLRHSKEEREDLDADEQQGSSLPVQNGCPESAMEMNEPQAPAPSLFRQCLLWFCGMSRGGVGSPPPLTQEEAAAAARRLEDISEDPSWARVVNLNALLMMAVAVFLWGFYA
- Test name: Cell-based assay for sodium-dependent glucose transport (14C-AMG uptake), CHOK-SGLT2
- Condition summary: CHO-K1 cells stably expressing human SGLT2; Na-dependent 14C-AMG uptake
Measurement label: pIC50
As a rule, pIC50 stands for the negative log10 of the concentration, concentration in M.

Sample answers from the record:
compound="OCC1OC(Oc2cccc3ncn(CCc4ccc5ccccc5c4)c23)C(O)C(O)C1O (stereo not shown) [Example 2]" measured_result=6.48
compound="CCc1ccc(Cn2cnc3cc(C)cc(O[C@@H]4O[C@H](CO)[C@@H](O)[C@H](O)[C@H]4O)c32)cc1 [Example 8]" measured_result=7.21
compound="COc1ccc(CCn2cnc3cccc(OC4OC(CO)C(O)C(O)C4O)c32)cc1 (stereo not shown) [Example 5]" measured_result=6.44

In the following, a different compound is considered.
Fill blank: measured pIC50 of the compound COc1ccc(CCn2nnc3cccc(OC4OC(CO)C(O)C(O)C4O)c32)cc1 (stereo not shown) [Example 9] is ____.
6.41
